- System: NCI/ADR-RES ovarian
- assayInfo: NCI tumour cell line growth inhibition, 48 h
Recorded TGI values for a group of compounds are listed next.

compound: O=C1NC2c3c(I)sc(I)c3C(=O)C2O1 (stereo not drawn)
TGI: 34.1 µM
//
compound: COC1/C=C(C)/C=C/C(C)/C=C/C(=O)OC(/C(C)=C/C=C(\C)CNC(=O)[C@H](CO)NC=O)C(C)/C=C/C=C/C(OC)CC/C=C(C)/C=C/C1 (stereo partly drawn)
TGI: > 0.724 µM
//
compound: CCOC1OC(COC(=O)C(C)(C)C)C(O)CC1n1cc(C)c(=O)[nH]c1=O (stereo not drawn)
TGI: > 100 µM
//
compound: CN(Cc1ccccc1)Cn1ccnc1
TGI: > 100 µM
//
compound: CC1=C(C(=O)OC2CC3CCC2(C)C3(C)C)C2Nc3ccccc3N(C)C2O1 (stereo not drawn)
TGI: 12.6 µM
//
compound: O=C1Nc2c(ccc(Cl)c2Cl)/C1=C/c1cc(Br)c(O)c(Br)c1
TGI: > 24.1 µM
//
compound: Cc1ccc2c(c1)C(=C(C#N)C#N)CCCS2(=O)=O
TGI: > 100 µM
//
compound: CC(C)(C)C(=O)OCOP(=O)(NCc1ccccc1)C1CCCN(O)C1=O (stereo not drawn)
TGI: 6.65 µM

----------
- Tested on: TK-10 renal
- assayInfo: NCI tumour cell line growth inhibition, 48 h
Where a SMILES comes first, the peptide text is derived from it. The star is where a group is joined. Fmoc = O=C(OCC1c2ccccc2-c2ccccc21)*; OtBu = CC(C)(C)O*
Parameter: TGI. Scope: all listed entries.

molecule: C[C@@H](Oc1cc(-n2cnc3ccc(OC4CCN(C)CC4)cc32)sc1C(N)=O)c1ccccc1Cl
TGI: 5.75 µM
--
molecule: O=C(COc1ccc(Cl)c(Cl)c1)Nc1ccc[n+](Cc2ccc(S(=O)(=O)F)c(Cl)c2)c1
TGI: > 100 µM
--
molecule: C=CCN(c1cc(OC)c(NC(C)=O)cc1[N+](=O)[O-])S(C)(=O)=O
TGI: > 100 µM
--
molecule: O=C(CSc1nc2c(n1Nc1ccccc1)-c1ccccc1SC2)Nc1nc(-c2ccc(Cl)cc2)cs1
TGI: 58.9 µM
--
molecule: CCOCCOCCOCc1nc(C#N)c(N)o1
TGI: > 100 µM
--
molecule: Cc1cnc2ccc(C)c([N+](=O)[O-])c2c1NCCCN(C)C
TGI: > 100 µM
--
molecule: COc1ccc2ncn(-c3cc(O[C@H](C)c4ccccc4C(F)(F)F)c(C(N)=O)s3)c2c1
TGI: 7.22 µM
--
molecule: Cc1cc(S(=O)(=O)NC2=NCc3nc4ccccc4n32)c(S)cc1Cl
TGI: > 100 µM
--
molecule: O=C(O)c1cc(-c2ccc3cc4c(cc3c2)OCO4)nc2ccccc12
TGI: > 100 µM
--
molecule: CCc1ccc(Oc2c(-c3ccc(OCc4ccc(Cl)cc4)cc3O)n[nH]c2C(F)(F)F)cc1
TGI: 4.75 µM
--
molecule: O=c1ccc2ccc(OP(=O)(O)O)cc2o1
TGI: > 100 µM
--
molecule: C/C(=N\N=C(N)N)C(CN1CCCCC1)C(c1ccccc1)c1c(O)c2ccccc2oc1=O (centres undefined)
TGI: > 100 µM
--
molecule: COc1ccc(CNc2cnc3cc(N)ccc3n2)cc1
TGI: > 100 µM
--
molecule: CC1Cc2c(Cl)ncnc2N(C)c2ccc(Cl)cc21 (centres undefined)
TGI: 13.2 µM
--
molecule: O=C1/C(=C/c2cccc(Cl)c2)CCCc2ccccc21
TGI: 34.9 µM
--
molecule: CC(=O)Nc1ccc(/C=C/C(=O)c2sc(-c3cccnc3)nc2C)cc1
TGI: > 100 µM
--
molecule: O=C(Nc1ccccc1)c1cc(S(=O)(=O)Nc2n[nH]c(=O)n2-c2ccccc2)c(S)cc1Cl
TGI: > 100 µM
--
molecule: c1ccc2c(CSCc3cccc4ccccc34)cccc2c1
TGI: > 100 µM
--
molecule: CNC(=O)c1ccc(N2C(=S)N(c3cnc(C#N)c(C(F)(F)F)c3)C(=O)C23CCC3)cc1F
TGI: > 100 µM
--
molecule: O=C1Nc2c(ccc(Cl)c2Cl)/C1=C/c1cc(Br)c(O)c(Br)c1
TGI: > 100 µM
--
molecule: O=C1C2C(C(=O)N1c1ccccc1)C1(c3ccccc3)CCC2(C(=O)c2ccccc2)O1 (centres undefined)
TGI: > 10 µM
--
molecule: COc1ccc(N=c2oc3ccccc3cc2C(N)=O)cc1
TGI: 46.6 µM
--
molecule: CC(=O)OCCn1cnc2c(NCC=C(C)C)ncnc21
TGI: > 100 µM
--
molecule: CN1C(=O)C2(C)SC1(c1ccccc1)C1C(=O)N(c3ccccc3)C(=O)C12 (centres undefined)
TGI: > 100 µM
--
molecule: CC(C)(C)[Si](OC1CCOC1=O)(c1ccccc1)c1ccccc1 (centres undefined)
TGI: 84.6 µM
--
molecule: Cc1c(-c2cnccn2)ssc1=S
TGI: 98.7 µM
--
molecule: CC1=NN(c2cccc(Cl)c2)C2(SCC(=O)N2c2nc3ccccc3s2)C1=CC=Cc1ccccc1 (centres undefined)
TGI: > 100 µM
--
molecule: CC(C)C(NC(=O)OCC1c2ccccc2-c2ccccc21)C(=O)NC(CCC(=O)OC(C)(C)C)C(=O)OC(C)(C)C (centres undefined) (Fmoc-Val-Glu(OtBu)-OtBu; configuration not given here)
TGI: > 100 µM
--
molecule: CC1CC(N)=C(C#N)C1(C#N)C#N (centres undefined)
TGI: > 100 µM
--
molecule: COc1ccc(/C=C\c2cc(OC)c(OC)c(OC)c2)cc1OCC(=O)Nc1nc2ccc(F)cc2s1
TGI: > 100 µM
--
molecule: CCC[C@H]1O[C@@H]2CC(=O)O[C@@H]2C2=C1C(=O)C=CC2=O
TGI: > 57.3 µM
--
molecule: Cc1nn(CNc2ccccc2C(F)(F)F)c(=S)n1/N=C/c1cccc2cccnc12
TGI: > 100 µM
--
molecule: Cc1ccc2c(c1)C(=C(C#N)C#N)CCCS2(=O)=O
TGI: > 100 µM
--
molecule: O=C(C=P(c1ccccc1)(c1ccccc1)c1ccccc1)c1ccc(-c2cccs2)cc1
TGI: 11.3 µM
--
molecule: Oc1c(Cl)cc(Cl)c(Cl)c1CNCCNCc1c(O)c(Cl)cc(Cl)c1Cl
TGI: 11.2 µM
--
molecule: N#Cc1ccc(C(O)C(F)(F)c2nc3ccccc3o2)cc1 (centres undefined)
TGI: > 100 µM
--
molecule: NC(=O)NNC(=O)CCn1[nH]c(=O)c(Cl)c(Cl)c1=O
TGI: > 100 µM
--
molecule: C=C(C)C12CC3CC(/C(=N/O)C(C1)/C3=N\O)[C@@]2(C)O (some centres undefined)
TGI: > 100 µM
--
molecule: COc1cc2c(cc1OC)OC(c1c(OC)ccc(OC)c1O)CC2 (centres undefined)
TGI: > 100 µM

----------
- Tested on: MDA-MB-231 breast
- assayInfo: NCI tumour cell line growth inhibition, 48 h
Where a SMILES comes first, the peptide text is derived from it. The star is where a group is joined. Fmoc = O=C(OCC1c2ccccc2-c2ccccc21)*; OtBu = CC(C)(C)O*

compound: C=CCN(c1cc(OC)c(NC(C)=O)cc1[N+](=O)[O-])S(C)(=O)=O
TGI: > 100 µM
--
compound: O=C1/C(=C/c2cccc(Cl)c2)CCCc2ccccc21
TGI: 38.2 µM
--
compound: COc1ccc(C(CC2(c3ccc(OC)cc3)SCCCS2)NC(C)=O)cc1 (stereo not drawn)
TGI: > 100 µM
--
compound: COc1cc(/C=C2\CC3C4CC=C5C[C@@H](OC(C)=O)CC[C@]5(C)C4CC[C@]3(C)C2=O)ccc1OCCN1CCCCC1 (stereo partly drawn)
TGI: 7.89 µM
--
compound: Cc1c(C)n(CCCN2CCN(C)CC2)c2ccc(Oc3cccc(C(=O)N4CCN(CCc5ccc(F)cc5)CC4)c3)cc12
TGI: 3.43 µM
--
compound: CC(C)C(NC(=O)OCC1c2ccccc2-c2ccccc21)C(=O)NC(CCC(=O)OC(C)(C)C)C(=O)OC(C)(C)C (stereo not drawn) (Fmoc-Val-Glu(OtBu)-OtBu; configuration not given here)
TGI: > 100 µM
--
compound: COc1ccc(N=c2oc3ccccc3cc2C(N)=O)cc1
TGI: > 100 µM
--
compound: Cc1ccc(C)n1-c1ccccc1C1C=Cn2c(=O)nnc3c(OC(C)C)c(OC(C)C)c(O)c1c32 (stereo not drawn)
TGI: > 100 µM
--
compound: CC1Cc2c(Cl)ncnc2N(C)c2ccc(Cl)cc21 (stereo not drawn)
TGI: 0.691 µM
--
compound: O=C1C2C(C(=O)N1c1ccccc1)C1(c3ccccc3)CCC2(C(=O)c2ccccc2)O1 (stereo not drawn)
TGI: > 10 µM
--
compound: CCOC(=O)c1cc(C2CCN(c3ccccc3)C2=O)c(/C(O)=C/C(C)=O)[nH]1 (stereo not drawn)
TGI: > 100 µM
--
compound: CC(=O)c1nc2ccccc2n1C(C)C(=O)c1ccccc1 (stereo not drawn)
TGI: > 100 µM
--
compound: Nc1nc(/C=C\c2ccc([N+](=O)[O-])s2)nc(N2CCN(c3ccccc3)CC2)n1
TGI: 29.6 µM
--
compound: CC(C)CC(NC(=O)C(C)(CI)Cc1ccccc1)C(=O)Nc1ccccc1 (stereo not drawn)
TGI: > 100 µM
--
compound: COc1ccc(Nc2nc3cc(N)cc(N)c3nc2-c2ccccc2)cc1
TGI: 25.2 µM
--
compound: COc1c/c(=C2\C=c3ccccc3=N2)[nH]/c1=C\c1[nH]c(C)cc1C
TGI: 3.87 µM
--
compound: CCCCCCCCCCCCCCCC1=NCC[N+]1(CCO)CCO
TGI: 3.51 µM
--
compound: CCn1cc2c(=O)n3ncn(-c4ccc(Br)cc4)c3nc2n1
TGI: > 100 µM
--
compound: Cc1ccc2c(c1)C(=C(C#N)C#N)CCCS2(=O)=O
TGI: > 100 µM
--
compound: CC[C@H](C)[C@H](NC(=O)[C@H]1CCCCN1C)C(=O)N(C)[C@H](C[C@@H](OC(C)=O)c1cccc(C(=O)N[C@@H](Cc2ccccc2)C[C@H](C)C(=O)OC)n1)C(C)C
TGI: 0.85 µM
--
compound: Cc1ccc2c(=O)cc(-c3sccc3C)[nH]c2n1
TGI: > 43.4 µM
--
compound: CCOCCOCCOCc1nc(C#N)c(N)o1
TGI: > 100 µM
--
compound: N#Cc1ccc(C(O)C(F)(F)c2nc3ccccc3o2)cc1 (stereo not drawn)
TGI: > 100 µM
